- SYSTEM TESTED: Histone deacetylase 6 (Mus musculus)
- Sequence (Q9Z2V5 whole entry): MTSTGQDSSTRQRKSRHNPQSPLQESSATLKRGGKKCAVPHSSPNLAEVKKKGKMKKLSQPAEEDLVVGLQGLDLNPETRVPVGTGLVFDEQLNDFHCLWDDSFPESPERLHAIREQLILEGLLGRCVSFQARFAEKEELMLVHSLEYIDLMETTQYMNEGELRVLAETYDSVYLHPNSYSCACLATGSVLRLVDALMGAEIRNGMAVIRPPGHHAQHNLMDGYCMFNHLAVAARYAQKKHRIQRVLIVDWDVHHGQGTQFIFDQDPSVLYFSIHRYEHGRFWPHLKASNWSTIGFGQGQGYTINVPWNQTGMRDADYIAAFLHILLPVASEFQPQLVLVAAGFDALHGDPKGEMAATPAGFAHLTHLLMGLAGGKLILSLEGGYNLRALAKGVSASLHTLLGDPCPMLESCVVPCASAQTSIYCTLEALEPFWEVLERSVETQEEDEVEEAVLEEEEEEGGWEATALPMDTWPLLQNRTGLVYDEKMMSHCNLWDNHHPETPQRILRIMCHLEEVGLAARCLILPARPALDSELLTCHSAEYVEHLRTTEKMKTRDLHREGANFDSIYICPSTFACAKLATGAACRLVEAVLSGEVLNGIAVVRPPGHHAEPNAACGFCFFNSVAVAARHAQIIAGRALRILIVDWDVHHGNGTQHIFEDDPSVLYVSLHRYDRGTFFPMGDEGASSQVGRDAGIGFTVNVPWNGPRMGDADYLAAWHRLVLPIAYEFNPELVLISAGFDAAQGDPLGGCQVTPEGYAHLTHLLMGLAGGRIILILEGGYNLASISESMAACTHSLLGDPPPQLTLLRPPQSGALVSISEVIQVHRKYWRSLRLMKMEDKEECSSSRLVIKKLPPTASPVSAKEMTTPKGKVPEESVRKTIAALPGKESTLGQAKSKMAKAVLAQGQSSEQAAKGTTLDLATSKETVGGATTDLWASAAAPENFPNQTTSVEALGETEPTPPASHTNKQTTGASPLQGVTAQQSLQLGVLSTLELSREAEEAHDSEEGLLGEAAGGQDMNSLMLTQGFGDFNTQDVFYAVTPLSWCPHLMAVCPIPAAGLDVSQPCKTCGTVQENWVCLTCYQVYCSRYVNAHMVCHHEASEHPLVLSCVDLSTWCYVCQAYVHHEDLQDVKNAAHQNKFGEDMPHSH
- METHOD: HDAC Enzyme Activity Assay
- DETAILS: pH 8; 37 °C
Can you tell me IC50 for the items I'm about to list?
Please reply with the bare figure in µM and do not write the unit itself.

Enter reported IC50 observed with Histone deacetylase 6 (Mus musculus) for CC1(C)NC(=O)[C@H](CCCCCC=O)NC(=O)[C@H]2CCCN2C(=O)[C@H](Cc2ccccc2)NC1=O
14.1

Queued: CC1(C)NC(=O)[C@H](CCCCCC(=O)CO)NC(=O)[C@H]2CCCN2C(=O)[C@H](Cc2ccccc2)NC1=O
0.887

Queued: CC(=O)CCCCC[C@@H]1NC(=O)[C@H]2CCCN2C(=O)[C@H](Cc2ccccc2)NC(=O)C(C)(C)NC1=O
3.7

====

- SYSTEM TESTED: Histone deacetylase 1 (Homo sapiens)
- Sequence (Q13547 whole entry): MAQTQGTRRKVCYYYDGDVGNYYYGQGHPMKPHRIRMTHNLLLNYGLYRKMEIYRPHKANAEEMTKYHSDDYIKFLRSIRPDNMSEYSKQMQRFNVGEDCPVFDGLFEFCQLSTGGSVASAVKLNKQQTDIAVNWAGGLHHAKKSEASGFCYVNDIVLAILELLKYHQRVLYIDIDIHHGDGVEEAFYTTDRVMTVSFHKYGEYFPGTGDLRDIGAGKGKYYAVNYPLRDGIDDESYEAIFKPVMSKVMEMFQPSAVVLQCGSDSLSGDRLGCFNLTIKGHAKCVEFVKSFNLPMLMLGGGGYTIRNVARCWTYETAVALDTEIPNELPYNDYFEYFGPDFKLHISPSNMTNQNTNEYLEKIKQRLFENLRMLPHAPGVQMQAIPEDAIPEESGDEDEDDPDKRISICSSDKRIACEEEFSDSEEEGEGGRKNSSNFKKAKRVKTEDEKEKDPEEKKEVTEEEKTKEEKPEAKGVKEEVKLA
RESULT TYPE: pIC50
Remember, pIC50 is on a log scale: it is -log10 of the molar concentration.

Consider the molecule CC(=O)CCCCC[C@@H]1NC(=O)[C@H]2CCCN2C(=O)[C@H](Cc2ccccc2)NC(=O)C(C)(C)NC1=O and give its measured pIC50.
5.97

Queued: CC1(C)NC(=O)[C@H](CCCCCC2CO2)NC(=O)[C@H]2CCCN2C(=O)[C@H](Cc2ccccc2)NC1=O (stereo partly specified)
5.33

Queued: CC1(C)NC(=O)[C@H](CCCCCC(=O)CO)NC(=O)[C@H]2CCCN2C(=O)[C@H](Cc2ccccc2)NC1=O
6.65

Queued: CC1(C)NC(=O)[C@H](CCCCCC=O)NC(=O)[C@H]2CCCN2C(=O)[C@H](Cc2ccccc2)NC1=O
5.36

====

The following are reported IC50 results, target or system Histone deacetylase 4 (Homo sapiens, UniProt P56524).
Please reply with the bare figure in nM and do not write the unit itself.

Consider the compound CC1(C)NC(=O)[C@H](CCCCCC=O)NC(=O)[C@H]2CCCN2C(=O)[C@H](Cc2ccccc2)NC1=O and give its measured IC50.
1290

Queued: CC1(C)NC(=O)[C@H](CCCCCC(=O)CBr)NC(=O)[C@H]2CCCN2C(=O)[C@H](Cc2ccccc2)NC1=O
59.5

Queued: CC1(C)NC(=O)[C@H](CCCCCC2CO2)NC(=O)[C@H]2CCCN2C(=O)[C@H](Cc2ccccc2)NC1=O (some centres not stated)
4050

Queued: CC1(C)NC(=O)[C@H](CCCCCC(=O)CO)NC(=O)[C@H]2CCCN2C(=O)[C@H](Cc2ccccc2)NC1=O
60.4

Queued: CC(=O)CCCCC[C@@H]1NC(=O)[C@H]2CCCN2C(=O)[C@H](Cc2ccccc2)NC(=O)C(C)(C)NC1=O
290

====

Can you tell me IC50 for the items I'm about to list?
- SYSTEM TESTED: UniProtKB Q9Z2V5
Peptide text beside a SMILES is read from it.

Consider the compound CC1(C)NC(=O)[C@H](CCCCCC(O)CO)NC(=O)[C@H]2CCCN2C(=O)[C@H](Cc2ccccc2)NC1=O (stereo partly drawn) and give its measured IC50.
> 100 µM

Queued: C=CCCCCC[C@@H]1NC(=O)[C@H]2CCCN2C(=O)[C@H](Cc2ccccc2)NC(=O)C(C)(C)NC1=O (HELM PEPTIDE1{[Aib].F.[dP].[C=CCCCCC[C@H](N[*:1])C(=O)[*:2]]}$PEPTIDE1,PEPTIDE1,1:R1-4:R2$$$V2.0)
> 100 µM

Queued: CC1(C)NC(=O)[C@H](CCCCCC2CO2)NC(=O)[C@H]2CCCN2C(=O)[C@H](Cc2ccccc2)NC1=O (stereo partly drawn)
> 100 µM
